# SYSTEM_TESTED: Left-right determination factor 2 (Homo sapiens) (UniProt O00292)
# Sequence (O00292 whole entry, looked up): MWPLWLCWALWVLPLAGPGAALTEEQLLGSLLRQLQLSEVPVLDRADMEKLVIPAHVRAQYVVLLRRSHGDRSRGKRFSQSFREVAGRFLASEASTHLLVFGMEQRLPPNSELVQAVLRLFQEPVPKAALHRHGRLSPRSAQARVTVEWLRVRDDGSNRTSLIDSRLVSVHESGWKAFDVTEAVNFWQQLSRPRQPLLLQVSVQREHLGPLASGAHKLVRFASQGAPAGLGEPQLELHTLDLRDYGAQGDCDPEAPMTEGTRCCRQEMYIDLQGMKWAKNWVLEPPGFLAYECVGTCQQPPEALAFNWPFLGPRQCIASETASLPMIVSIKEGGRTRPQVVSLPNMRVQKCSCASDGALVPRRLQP
# MEASUREMENT_DESCRIPTION: LEFTY2 binders on small-molecule microarrays, primary screen, biochemical, small-molecule microarray, 635 nm fluorescence scan (AID 1110)
# CONDITIONS: LEFTY2 binding, higher = more signal
Please enter true (1) where composite z-score is greater than or equal to 0.5, and false (0) where it is lower.

Some solved entries appear below for comparison.
- MOLECULE: "COC(=O)[C@@]1(Cc2ccc(F)cc2)[C@@H]2C(=CC(=O)[C@H]2CC(=O)C(=O)N(C)C)CN1C(=O)c1ccccc1"
  SYSTEM_TESTED: "Left-right determination factor 2 (Homo sapiens) (UniProt O00292)"
  ASSIGNED_LABEL: "false (0)"
- MOLECULE: "NCCCCCNC(=O)[C@@H]1C[C@@H]2C(=O)N3CCC[C@H]3C(=O)N2[C@@H]1c1cccc(OCCO)c1"
  SYSTEM_TESTED: "Left-right determination factor 2 (Homo sapiens) (UniProt O00292)"
  ASSIGNED_LABEL: "true (1)"
- MOLECULE: "Cc1ccc(S[C@]2(C(=O)NCC(F)(F)F)CC(=O)N(Cc3ccccc3Cl)[C@@H]2c2ccc(CO)cc2I)cc1"
  SYSTEM_TESTED: "Left-right determination factor 2 (Homo sapiens) (UniProt O00292)"
  ASSIGNED_LABEL: "false (0)"
- MOLECULE: "C=CCN1C(=O)[C@]2(O[C@H](CCn3cc(CCO)nn3)[C@@H]([Si](C)(C)c3ccc(OC)cc3)[C@@H]2C)c2cc(N3CCOC3=O)ccc21"
  SYSTEM_TESTED: "Left-right determination factor 2 (Homo sapiens) (UniProt O00292)"
  ASSIGNED_LABEL: "false (0)"
- MOLECULE: "CC(CCC(=O)OC[C@H]1O[C@H](C#Cc2ccccc2)C=C[C@@H]1Oc1ccc(C)cc1)=NOC[C@@H](O)COCc1ccco1"
  SYSTEM_TESTED: "Left-right determination factor 2 (Homo sapiens) (UniProt O00292)"
  ASSIGNED_LABEL: "false (0)"

Lookup: Does composite z-score meet or surpass 0.5 for CC(C)[C@@H](OCc1ccccc1)[C@H](C)C=NOC[C@@H](C)[C@H](OCc1ccccc1)C(C)C ?
Found: true (1)

Lookup: Does composite z-score meet or surpass 0.5 for O=C1C[C@@H](O)[C@@H](O)[C@@H]2[C@@H]3C(=O)N(Cc4ccc5c(c4)OCO5)C(=O)[C@@H]3CC[C@@H]12 ?
Found: true (1)

Lookup: Does composite z-score meet or surpass 0.5 for CCN1C(=O)[C@H]2[C@H]3[C@H](O)[C@H](O)CC(=NOCc4ccccc4)[C@H]3CC[C@H]2C1=O ?
Found: false (0)

Lookup: Does composite z-score meet or surpass 0.5 for CCc1cc2c(nc1CC)CCN(CCC(C)=NOC[C@@H](O)COCc1ccco1)C2 ?
Found: true (1)

Lookup: Does composite z-score meet or surpass 0.5 for COc1ccccc1CN1C(=O)c2ccccc2[C@@]2(Cc3ccccc3N(C(C)C)C2=O)[C@@H]1c1ccc(CO)cc1 ?
Found: false (0)

Lookup: Does composite z-score meet or surpass 0.5 for COC(=O)[C@H](C)NC(=O)CCC1CC(OC(=O)NCCc2ccc(F)cc2)CC2(CCCC(COC(=O)NCC(c3ccccc3)c3ccccc3)O2)O1 (some centres undefined) ?
Found: false (0)
